Where these numbers come from: ChEMBL document CHEMBL1201862

- target_system: UniProtKB P61088
- Sequence (P61088 whole entry): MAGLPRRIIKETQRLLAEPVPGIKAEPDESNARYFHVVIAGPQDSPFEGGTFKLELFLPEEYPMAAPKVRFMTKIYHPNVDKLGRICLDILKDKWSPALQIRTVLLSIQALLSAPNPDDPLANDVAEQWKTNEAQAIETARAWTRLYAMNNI
- Format: functional
Active and inactive are the calls of the source.
# valid calls are active, inactive; nothing else

Any idea what this test logged for COc1cc(/C=C2/SC(Nc3ccc(O)cc3)=NC2=O)cc(OC)c1O ?
inactive

// param item: CC(=O)c1cn(S(=O)(=O)c2ccccc2)c2ccccc12 ; yields the recorded call
inactive

I'd appreciate the recorded outcome for O=C1c2cccc3cccc(c23)C(=O)N1Cc1cccnc1 from this test.
active

Please indicate how the test categorized CCCCN1C(=N)N([C@@H](CCC)CN2CCC[C@H]2CN2C(N)=NC[C@H]2CC(C)C)C[C@H]1Cc1ccccc1 .
inactive

What classification did Cc1ccc2cc3c(nc2c1)N(c1ccccc1)CC3 end up with in this test?
active

Hi, do you know how Nc1ccc2[nH]c(-c3cccc(-c4nc5cc(N)ccc5[nH]4)n3)nc2c1 came out in this test?
active

# lookup: test call for Cc1ccc(C(=O)NNC(=O)c2nn(-c3ccc(F)cc3)ccc2=O)cc1
active

What was the test verdict on CCCCOc1ccc(CNn2c(C)nc3ccccc3c2=O)cc1 ?
inactive

Per the assay record, what outcome was assigned to O[C@@H](c1cc(C(F)(F)F)nc2c(C(F)(F)F)cccc12)[C@H]1CCCCN1 ?
inactive

Assay outcome for Cc1ccc(N(C(=O)c2snc(C(N)=O)c2N)C(C(=O)NCCC(C)C)c2ccco2)cc1 (stereo unspecified) : what was it?
active

Would you mind telling me which call this test gave C#CCOCCOCCOCCNc1nc(N2CCN(C(=O)CCCCCCCCCCNC(=O)Cn3cc(CCCCCN)nn3)CC2)nc(N2CCN(C(=O)CCCCCCCCCCNC(=O)[C@@H](CCSC)n3cc(CCO)nn3)CC2)n1 ?
active
